Test system: L1210 leukemia ip in BDF1 mice, survival T/C
measurementDescription: NCI In Vivo Anticancer Drug Screen. Data for tumor model L1210 Leukemia (intraperitoneal) in B6D2F1 (BDF1) mice
settings: endpoint: mean survival time; dose: 400.0 mg/kg/injection; schedule: Q04DX002 (ip); vehicle: carboxymethylcellulose (CMC); higher = longer survival
Inconclusive results and toxic doses are left out.
quantityKind: T/C

Which T/C reading was recorded for the compound Cc1cc(Cl)ccc1OC(=O)Nc1cccc2ccccc12 ? 104 % of control

Can you share its T/C? I mean this compound: CCCCC(=O)N1CCCCC1C (centres undefined) 102 % of control

Fill in: T/C of CCCCCCCCC(=O)N(CCC)CCC is ___ 96 % of control

T/C lookup needed for COC(=O)c1ccccc1N(C)C(=O)Nc1ccc(F)cc1 , thanks. 98 % of control

###

Tested on: L1210 leukemia ip in BDF1 mice, survival T/C
measurementDescription: NCI In Vivo Anticancer Drug Screen. Data for tumor model L1210 Leukemia (intraperitoneal) in B6D2F1 (BDF1) mice
settings: endpoint: mean survival time; dose: 20.0 mg/kg/injection; schedule: Q01DX001 (ip); vehicle: saline; higher = longer survival
Inconclusive results and toxic doses are left out.
quantityKind: T/C

Would you kindly share the measured T/C for COc1cc(C[N+]23CC[N+](Cc4cc(OC)cc(OC)c4)(CC2)C3)cc(OC)c1 ? 103 % of control

Fill blank: measured T/C of the compound CC1=NCC[N-]CC[N-]CCN=C(C)C2CCCC1[N-]2.[Mn+3] is ____. 102 % of control

I am curious: what T/C value has been reported for N=c1ccn(CC(Cl)COc2ccccc2)cc1 (centres undefined) ? 105 % of control

What T/C value was documented for this compound, O=S(=O)(O)CS(=O)(=O)O.[Ag] ? 97 % of control

###

System: L1210 leukemia ip in BDF1 mice, survival T/C
measurementDescription: NCI In Vivo Anticancer Drug Screen. Data for tumor model L1210 Leukemia (intraperitoneal) in B6D2F1 (BDF1) mice
settings: endpoint: mean survival time; dose: 100.0 mg/kg/injection; schedule: Q04DX003 (ip); vehicle: saline; higher = longer survival
Toxic doses and inconclusive results are not listed.
Please respond with reported T/C for every item in the list.

Requested field: T/C. Item: CC(C)(CCCl)N(Cc1ccccc1)Cc1ccccc1 99 % of control

Consider the compound shown here: O=C(O)/C=C/C(=O)Nc1ccc2c(c1)Cc1cc(NC(=O)C(F)(F)F)ccc1-2 What is its recorded T/C? 98 % of control

Please give the measured T/C for this compound: O=S(=O)(CC12CC1(O)C1CCC2C1)c1ccccc1 (centres undefined) 103 % of control

For the compound CCC1C(=O)OCc2c1c(Br)cn(C)c2=O (centres undefined) , what T/C is on record? 93 % of control

Quick one: T/C of CCCCNCC1COc2cccc(OCC)c2O1 (centres undefined) ? 95 % of control

Quick one: T/C of C=CC1CC(=O)N1C (centres undefined) ? 100 % of control

Which T/C value belongs to Nc1cc(Cl)cc(Cl)c1C(=O)O ? 90 % of control

Give the measured T/C of CCOP(=O)(/C=C/c1ccccc1)OCC . 109 % of control

Given CC1=NCCO1 , state its recorded T/C. 102 % of control

# query: T/C of entry C(CSC1=NCCN1)CSC1=NCCN1 100 % of control

Form field: reported T/C of COc1cc(N)c2nccc(N(C)C)c2c1 97 % of control

Would you mind telling me what T/C value was observed for CC1CCOC(C)O1 (centres undefined) ? 100 % of control

Could you tell me which T/C is on file for CCOC(=O)N1Cc2cc3cc4c(cc3nc2C1)OCO4 ? 94 % of control

Sample BrCc1cccc2ccccc12 — what was its T/C? 87 % of control
